Test: chemical genetic growth profiling, strain panel (AID 1159580);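 further: tested at 20 µM; growth read once vehicle control cultures reached saturation at 30 °C; 1 = growth at the plate median or of vehicle wells; lower values mean less growth of the strain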
Conditions: S. cerevisiae deletion strains, growth OD, locus YBR231C, strain swc5, stronger effect = lower value
Among all 5,500 compounds or so, about 2,000 (36%) were called active. About 18% were inconclusive and are not listed. This is one part of the list.
value_type: normalized growth
Reply briefly: the number, and no unit.

Please look up its normalized growth: CC(NCCC(c1ccccc1)c1ccccc1)c1ccccc1 (configuration not stated)
0.944

Query CC1(C)C=Cc2cc3ccc(=O)oc3cc2O1 next
0.958

// next record CN1C(=O)CCS(=O)(=O)C1c1ccc(Cl)cc1 (configuration not stated)
0.965

Please do the same for CNCC[C@@H](Oc1ccccc1)c1ccccc1 as well.
0.984

Entry to check: CCOc1ccc(C(=O)c2ccc(OC)c(O)c2O)cc1
0.939

Now try CN(C)CCc1c[nH]c2ccc(C[C@H]3COC(=O)N3)cc12 .
0.993

Then what about the molecule CN(C)CCc1c[nH]c2ccc(CS(=O)(=O)N3CCCC3)cc12 ?
0.993

====

Assay: chemical genetic growth profiling, strain panel (AID 1159580);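 further: tested at 20 µM; growth read once vehicle control cultures reached saturation at 30 °C; 1 = growth at the plate median or of vehicle wells; lower values mean less growth of the strain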
Details: S. cerevisiae deletion strains, growth OD, locus YGL086W, strain mad1
Hit rate of the full screen: of about 5,500 compounds, about 2,000 (36%) were called active. Roughly 18% stayed inconclusive and do not appear here. Rule as the data show it: active = normalized growth mostly below about 0.91 (no sharp cut-off); inconclusive = no clear call, values can overlap the other calls; inactive = mostly above about 0.92. This is one part of the list.
Your response should consist of one outcome taken from active, inactive

Returns: the outcome recorded for COc1cccc(O)c1O in this assay.
inactive

Note, next up: O=c1[nH]cnc2c1ncn2C1O[C@H](CO)[C@@H](O)[C@H]1O (some centres undefined)
inactive

Entry CC(=O)Oc1cccc2c1C(=O)c1c(OC(C)=O)cc(C(=O)O)cc1C2=O please
active

Please do the same for COc1ccc(C2C(=O)c3ccccc3C2=O)cc1 as well.
inactive

Same thing, different compound: O=C(O)c1cc(=O)c2cccc(O)c2[nH]1
inactive

What about this compound? CC1(C)C(=O)[C@@H]2C[C@@]3(O)C4=CC(=O)O[C@@H](c5ccoc5)[C@]4(C)CCC3[C@@](C)(C2=O)[C@H]1CC(=O)O (some centres undefined)
inactive

Field entry: COc1cc(-c2oc3cc(O)ccc3c(=O)c2O)cc(OC)c1OC
inactive

And the next one, O=c1c(O)c(-c2ccc(O)c(O)c2)oc2cc(O)ccc12 ?
active

Now this one: NC1C[C@H]1c1ccccc1 (some centres undefined)
inactive

// repeat for CCOC([O-])=Nc1c[n+](N2CCOCC2)no1 and report
inactive

NCC1OC(OC2C(CO)OC(OC3C(O)C(N)CC(N)C3OC3OC(CO)C(O)CC3N)C2O)C(N)C(O)C1OC1OC(CO)C(O)C(O)C1O (centres undefined) ?
inactive

Same lookup for COc1ccc2c(c1OC)OC[C@@H](c1ccc(OC)c(OC)c1OC)C2 , please.
inactive

What would you report for OC(c1cc(C(F)(F)F)nc2c(C(F)(F)F)cccc12)C1CCCCN1 (centres undefined) ?
inactive

Also need O=C(O)c1cc(=O)c2c(Cl)cc(Cl)cc2[nH]1 , thanks.
inactive

Record: NC1CC1c1ccccc1 (centres undefined)
inactive

One more compound: C1CCC(C(CC2CCCCN2)C2CCCCC2)CC1 (centres undefined)
active

Next up: COc1cc2cc3c4cc(OC)c(OC)cc4cc[n+]3c(C)c2cc1OC
inactive

// same read-out, input: O=C1c2ccccc2C(=O)C1c1ccccc1
inactive

Please give the result for CC(=O)CC1CCCCN1 (centres undefined) too.
inactive

Next compound: CN1CCN(CC(=O)N2c3ccccc3C(=O)Nc3cccnc32)CC1
inactive

Note, next up: CN1C(=O)CCS(=O)(=O)C1c1ccc(Cl)cc1 (centres undefined)
inactive

And then COc1ccc2c(=O)ccoc2c1 , what is it?
inactive

CC[C@H]1CN2CCc3cc(OC)c(OC)cc3C2C[C@@H]1CC1NCCc2cc(OC)c(OC)cc21 (some centres undefined) , same question.
inactive

Please answer likewise for CC(=O)[C@@]1(O)CCC2C3CCC4=CC(=O)CC[C@]4(C)C3CC[C@@]21C (some centres undefined)
inactive
